Can you tell me log10(IC50) for the items I'm about to list?
Transform log10 | Measure IC50 | Unit nM

Prompt: GET /values?readout=log10(IC50)&system=PRMT5 (Homo sapiens)&item= CNCCN(C)Cc1cccc(-c2cc(C(=O)N[C@@H](C)c3ccccc3)c3cnn(Cc4ccccc4)c3n2)c1 [Compound 281]
Response: 4.24

Prompt: GET /values?readout=log10(IC50)&system=PRMT5 (Homo sapiens)&item= NCCNCc1ccc(-c2ccc3ncn(Cc4cccc(C(=O)NC5CC5)c4)c3c2)cc1 [Compound 342]
Response: 2.04

Prompt: GET /values?readout=log10(IC50)&system=PRMT5 (Homo sapiens)&item= NCCNCc1ccc(-c2ccc3[nH]c(=O)n(-c4ccccc4)c3c2)cc1 [Compound 91]
Response: 2.70

Prompt: GET /values?readout=log10(IC50)&system=PRMT5 (Homo sapiens)&item= CC(C)n1ncc2c(C(=O)NCC3CCN(C)CC3)cc(-c3cccc(CN(C)CCN(C)C)c3)nc21 [Compound 162]
Response: 4.70

Prompt: GET /values?readout=log10(IC50)&system=PRMT5 (Homo sapiens)&item= CN(CCN)Cc1cccc(-c2ccc(C(=O)NCC3CCOCC3)c(N(C)CC3CC3)c2)c1 [Compound 263]
Response: 3.89

Prompt: GET /values?readout=log10(IC50)&system=PRMT5 (Homo sapiens)&item= Cc1cccc(-n2cnc3ccc(-c4ccc(CNCCN)cc4)cc32)c1 [Compound 106]
Response: 2.25

Prompt: GET /values?readout=log10(IC50)&system=PRMT5 (Homo sapiens)&item= Cc1cccc(Cn2cnc3ccc(-c4ccc(CNCCN)cc4)cc32)c1 [Compound 127]
Response: 1.87

Prompt: GET /values?readout=log10(IC50)&system=PRMT5 (Homo sapiens)&item= CN1CCCC(Cn2cnc3ccc(-c4ccc(CNCCN)cc4)cc32)C1 (centres unmarked) [Compound 338]
Response: 2.64

Prompt: GET /values?readout=log10(IC50)&system=PRMT5 (Homo sapiens)&item= Cc1ccc(Cn2cnc3ccc(-c4ccc(CNCCN)cc4)cc32)cc1 [Compound 97]
Response: 1.82

Prompt: GET /values?readout=log10(IC50)&system=PRMT5 (Homo sapiens)&item= CNCCN(C)Cc1ccc(-c2cncc(C(=O)NCc3c(C)cc(C)[nH]c3=O)c2)cc1 [Compound 373]
Response: 4.17

Prompt: GET /values?readout=log10(IC50)&system=PRMT5 (Homo sapiens)&item= CN1CCCN(C(=O)c2cccc(Cn3cnc4ccc(-c5ccc(CNCCN)cc5)cc43)c2)CC1 [Compound 331]
Response: 2.07

Prompt: GET /values?readout=log10(IC50)&system=PRMT5 (Homo sapiens)&item= Cc1c(C(=O)NCc2ccccc2)cc(-c2cccc(CN(C)CCN)c2)c2cn[nH]c12 [Compound 15]
Response: 4.03

Prompt: GET /values?readout=log10(IC50)&system=PRMT5 (Homo sapiens)&item= COc1ccc(Cn2cnc3ccc(-c4ccc(CNCCN)cc4)cc32)cc1 [Compound 132]
Response: 1.76

Prompt: GET /values?readout=log10(IC50)&system=PRMT5 (Homo sapiens)&item= NCCNCc1ccc(-c2ccc3cnn(Cc4cccc(Oc5ccccc5)c4)c3c2)cc1 [Compound 334]
Response: 2.67

Prompt: GET /values?readout=log10(IC50)&system=PRMT5 (Homo sapiens)&item= COc1ccccc1Cn1cnc2ccc(-c3ccc(CNCCN)cc3)cc21 [Compound 80]
Response: 2.21

Prompt: GET /values?readout=log10(IC50)&system=PRMT5 (Homo sapiens)&item= CC(C)n1ncc2c(C(=O)N(C)Cc3cccc(Cl)c3)cc(-c3cccc(CN(C)CCN)c3)nc21 [Compound 266]
Response: 3.25

Prompt: GET /values?readout=log10(IC50)&system=PRMT5 (Homo sapiens)&item= CC(=O)N1CCC(Cn2cnc3ccc(-c4ccc(CNCCN)cc4)cc32)CC1 [Compound 352]
Response: 2.51

###

- subject_of_test: human PRMT1 (Homo sapiens, UniProt Q99873)
- Construct: GST-tagged PRMT1; made in house; host or cells: High Five insect cells (baculovirus, pFastBacI)
- Sequence (Q99873 with tags, fused parts or gaps): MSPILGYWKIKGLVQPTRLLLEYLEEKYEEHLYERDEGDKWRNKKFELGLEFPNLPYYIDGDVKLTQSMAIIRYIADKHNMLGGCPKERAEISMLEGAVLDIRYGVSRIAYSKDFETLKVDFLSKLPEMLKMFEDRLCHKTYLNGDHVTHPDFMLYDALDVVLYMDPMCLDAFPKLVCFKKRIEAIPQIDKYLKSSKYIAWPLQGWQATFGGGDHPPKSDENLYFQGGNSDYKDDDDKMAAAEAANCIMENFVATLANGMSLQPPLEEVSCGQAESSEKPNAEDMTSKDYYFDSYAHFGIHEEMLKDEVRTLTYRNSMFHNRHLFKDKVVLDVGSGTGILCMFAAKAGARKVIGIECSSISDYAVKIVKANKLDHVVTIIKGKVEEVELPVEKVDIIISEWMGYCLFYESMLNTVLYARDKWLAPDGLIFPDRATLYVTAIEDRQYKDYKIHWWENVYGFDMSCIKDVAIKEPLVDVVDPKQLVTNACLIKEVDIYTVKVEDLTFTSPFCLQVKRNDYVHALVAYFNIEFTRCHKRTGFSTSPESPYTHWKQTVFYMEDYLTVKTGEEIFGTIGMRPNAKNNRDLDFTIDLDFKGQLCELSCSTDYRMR
- experiment: PRMT1 biochemical assay (3H-SAM Flashplate, peptide substrate)
- condition: read-out: PRMT1_ IC50
- Excerpt: S-adenosylmethionine (SAM), S-adenosylhomocysteine (SAH), bicine, Tween20, dimethylsulfoxide (DMSO), bovine skin gelatin (BSG), and Tris(2-carboxyethyl)phosphine hydrochloride solution (TCEP) were purchased from Sigma-Aldrich at the highest level of purity possible. ^3H-SAM was purchase from American Radiolabeled Chemicals with a specific activity of 80 Ci/mmol. 384-well streptavidin Flashplates were purchased from PerkinElmer. […]
Where a name gives a salt, the structure may show the parent alone.
Define the label as TRUE when IC50 is strictly less than 500 nM and as FALSE in all remaining cases.

Prompt: Quick check: IC50 of CC(C)n1ncc2c(C(=O)NCc3ccc(F)cc3)cc(-c3cccc(CN(C)CCN)c3)nc21 [Compound 25] under 500 nM?
Response: TRUE

Prompt: Quick check: IC50 of CNCCN(C)Cc1cccc(-c2cc(N3CCOCC3)n3ncc(C(C)C)c3n2)c1 [Compound 62, formate] under 500 nM?
Response: TRUE

Prompt: Quick check: IC50 of NCCNCc1ccc(-c2ccc3ncn(C4CCNCC4)c3c2)cc1 [Compound 157] under 500 nM?
Response: FALSE

Prompt: Quick check: IC50 of CNCCN(C)Cc1cccc(-c2cc(-c3cnn(C)c3)c3cnn(C(C)C)c3n2)c1 [Compound 49] under 500 nM?
Response: TRUE

Prompt: Quick check: IC50 of NCCNCc1ccc(-c2ccc3ncn(-c4ccccc4)c3c2)cc1 [Compound 113] under 500 nM?
Response: FALSE

Prompt: Quick check: IC50 of CN(CCN)Cc1cccc(-c2nc(NC3CC3)c3cnn(C4CC4)c3n2)c1 [Compound 96] under 500 nM?
Response: TRUE

Prompt: Quick check: IC50 of CNC(=O)Nc1cc(-c2cccc(CN(C)CCN)c2)nc2c1cnn2C(C)C [Compound 126] under 500 nM?
Response: FALSE

Prompt: Quick check: IC50 of CNCCN(C)Cc1cccc(-c2nc(N3CCOCC3)c3cnn(C(C)C)c3n2)c1 [Compound 99] under 500 nM?
Response: TRUE

Prompt: Quick check: IC50 of Cc1cc(C)c(CNC(=O)c2cc(-c3cccc(CNCCN)c3)cc3[nH]ncc23)c(=O)[nH]1 [Compound 366] under 500 nM?
Response: FALSE

Prompt: Quick check: IC50 of CNCCN(C)Cc1cccc(-c2cc(N3CCOCC3)c3cnn(C(C)C)c3n2)c1 [Compound 68] under 500 nM?
Response: TRUE

Prompt: Quick check: IC50 of Cc1cc(C)c(CNC(=O)c2cc(-c3cccc(CN(C)CCN)c3)nc3c2cnn3C(C)C)c(=O)[nH]1 [Compound 360] under 500 nM?
Response: TRUE

Prompt: Quick check: IC50 of CNCCN(C)Cc1cccc(-c2cc(C(=O)N[C@@H](C)c3ccccc3)c3cnn(C(C)C)c3n2)c1 [Compound 44] under 500 nM?
Response: TRUE

Prompt: Quick check: IC50 of CNCCN(C)Cc1cccc(-c2cc(C(=O)NCCC(=O)NCc3ccn(C)n3)c3cnn(C(C)C)c3n2)c1 [Compound 83] under 500 nM?
Response: TRUE

Prompt: Quick check: IC50 of CNCCN(C)Cc1cccc(-c2cc(NS(=O)(=O)N(C)C)c3cnn(C(C)C)c3n2)c1 [Compound 139] under 500 nM?
Response: FALSE

Prompt: Quick check: IC50 of CC(C)n1ncc2c(NC(=O)OCc3ccccc3)cc(-c3cccc(CN(C)CCN)c3)nc21 [Compound 84] under 500 nM?
Response: TRUE

Prompt: Quick check: IC50 of Cc1cc(C)c(CNC(=O)c2cc(-c3cccc(CNCCN)c3)nc3c2cnn3C(C)C)c(=O)[nH]1 [Compound 365] under 500 nM?
Response: FALSE

Prompt: Quick check: IC50 of COc1nc(C)cc(C)c1CNC(=O)c1cc(-c2cccc(CN(C)CCN(C)C)c2)nc2c1cnn2C(C)C [Compound 386] under 500 nM?
Response: FALSE

Prompt: Quick check: IC50 of Cn1cnc2ccc(-c3ccc(CNCCN)cc3)cc21 [Compound 165] under 500 nM?
Response: FALSE

Prompt: Quick check: IC50 of Cc1cccc(Cn2cnc3ccc(-c4ccc(CNCCN)cc4)cc32)c1 [Compound 127] under 500 nM?
Response: FALSE

###

Can you tell me pIC50 for the items I'm about to list?
- subject_of_test: UniProt Q86X55
- Sequence (Q86X55 2-585 isoform Q86X55-1): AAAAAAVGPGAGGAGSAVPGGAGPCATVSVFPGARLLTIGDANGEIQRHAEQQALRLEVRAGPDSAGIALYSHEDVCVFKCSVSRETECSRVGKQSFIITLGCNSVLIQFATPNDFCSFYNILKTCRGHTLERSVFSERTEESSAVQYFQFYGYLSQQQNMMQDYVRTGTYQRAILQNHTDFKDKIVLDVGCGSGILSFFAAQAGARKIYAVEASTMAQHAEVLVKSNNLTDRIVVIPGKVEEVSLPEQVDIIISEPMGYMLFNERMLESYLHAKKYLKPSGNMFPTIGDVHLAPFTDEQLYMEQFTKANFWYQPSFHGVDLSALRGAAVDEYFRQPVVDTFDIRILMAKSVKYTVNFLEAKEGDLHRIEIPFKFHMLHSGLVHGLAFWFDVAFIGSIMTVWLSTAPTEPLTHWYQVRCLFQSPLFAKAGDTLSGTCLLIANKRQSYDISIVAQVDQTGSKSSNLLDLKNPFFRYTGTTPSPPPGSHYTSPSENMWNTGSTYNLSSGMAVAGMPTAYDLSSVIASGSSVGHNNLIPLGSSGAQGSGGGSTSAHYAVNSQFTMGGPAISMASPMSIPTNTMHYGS
Remember the convention: pIC50 equals -log10 of concentration in molar.

Prompt: What measured pIC50 goes with CC(C)n1ncc2c(C(=O)N(C)C3CCOCC3)cc(-c3cccc(CN(C)CCN)c3)nc21 [Compound 265] ?
Response: 7.13

Prompt: What measured pIC50 goes with CNCCN(C)Cc1cccc(-c2cc(OCC3CC3)c3cnn(C(C)C)c3n2)c1 [Compound 203] ?
Response: 7.72

Prompt: What measured pIC50 goes with COc1ccccc1-c1nc2ccc(-c3ccc(CNCCN)cc3)cc2[nH]1 [Compound 115] ?
Response: 5.16

Prompt: What measured pIC50 goes with CNCCN(C)Cc1cccc(-c2cc(-c3ccc(O)cc3)c3cnn(C(C)C)c3n2)c1 [Compound 247] ?
Response: 7.26

Prompt: What measured pIC50 goes with CNCCN(C)Cc1cccc(-c2nc(NCc3cn4ccsc4n3)c3cnn(C4CC4)c3n2)c1 [Compound 6] ?
Response: 7.62

Prompt: What measured pIC50 goes with CNCCN(C)Cc1cccc(-c2cc(C(=O)N[C@@H](C)c3ccccc3)c3cnn(Cc4ccccn4)c3n2)c1 [Compound 225] ?
Response: 7.42

Prompt: What measured pIC50 goes with CC(C)n1ncc2c(C(=O)NCc3cncn3C)cc(-c3cccc(CN(C)CCN)c3)nc21 [Compound 185] ?
Response: 7.93

Prompt: What measured pIC50 goes with CNCCN(C)Cc1cccc(-c2cnc3c(c2)c(C2CC2)nn3CC2CCOCC2)c1 [Compound 4] ?
Response: 5.85

Reference for the values: patent US20170280720A1
